reported metric: melting point

Recorded results for 5 compounds are shown here.
{"compound": "O=C(NCc1ccccc1)c1cn2c(=O)n(Cc3ccc(Cl)cc3)c(=O)cc2s1", "melting point": "> 220 °C"}
{"compound": "COc1nn(-c2ccc(C=O)c(Cl)c2)nc1Cl", "melting point": "85 to 87 °C"}
{"compound": "CN[C@@H]1Cc2ccccc2[C@H]1Nc1ccccc1CO (relative stereo)", "melting point": "113 to 114 °C"}
{"compound": "COc1cc(C(=O)OCc2cc(COC(=O)c3ccc(O)c(OC)c3)cc(COC(=O)c3ccc(O)c(OC)c3)c2)ccc1O", "melting point": "161 °C"}
{"compound": "CC(=O)NN1CCC(c2ccc(-c3cccc(N)n3)cc2)CC1", "melting point": "224 to 227 °C"}

Now turn to the next compound.
Data request: Give melting point for O=C(C=Cc1ccccc1S(=O)(=O)Nc1ccccc1)NO
Data returned: 205 to 206 °C
